molecular target: human GLP-1 receptor (human, UniProt P43220 24-463); test: cell-based or functional assay; further: reference of the scale not given here
endpoint-name: hGLP1R cAMP EC50 ratio

binder	endpoint-name	result
YXEGTFTSDYXILLDKKAQXAFIEYLIEGGPSSGAPPPS (Aib2; αMeS11; K17((2-[2-(2-Amino-ethoxy)-ethoxy]-acetyl)2-(γ-Glu)-CO-(CH2)18-CO2H); Aib20; C-terminal NH2) [Example 68]	hGLP1R cAMP EC50 ratio	0.354
YXEGTXTSDYSILLDKIAQXAFIEYLIKGG (Aib2; αMeF6; Aib20; K28((2-[2-(2-Amino-ethoxy)-ethoxy]-acetyl)2-(γ-Glu)-CO-(CH2)18-CO2H); C-terminal NH2) [Example 95]	hGLP1R cAMP EC50 ratio	0.0576
YXEGTXTSDYSIXLDKKAQXAXIEYLIEGGPSSGAPPPS (not fully specified; Aib2; αMeF6; αMeF13 as printed (likely αMeL13); K17((2-[2-(2-Amino-ethoxy)-ethoxy]-acetyl)2-(γ-Glu)-CO-(CH2)18-CO2H); Aib20; αMeF22; C-terminal NH2) [Example 76]	hGLP1R cAMP EC50 ratio	0.63
